tested on: Pseudomonas aeruginosa; experiment: Antibacterial activity against Pseudomonas aeruginosa SR24; assay type: functional
Quick rule for you: MIC under 10 µg/mL gets rule met, anything else gets rule not met.

These solved cases illustrate the format of a correct answer.
C[C@@H](O)[C@H]1C(=O)N2C(C(=O)[O-])=C(/C=C/c3cccc[n+]3C)[C@H](C)[C@H]12 : rule not met
C/C(=C\C1=C(C(=O)[O-])N2C(=O)[C@H]([C@@H](C)O)[C@H]2[C@H]1C)C[n+]1ccccc1 : rule met
C[C@@H](O)[C@H]1C(=O)N2C(C(=O)O)=C(SCCNC=N)C[C@H]12 [IMIPENEM ANHYDROUS] : rule met
C[C@@H](O)[C@H]1C(=O)N2C(C(=O)[O-])=C(C[n+]3ccccc3)[C@H](C)[C@H]12 : rule met
C[C@@H](O)[C@H]1C(=O)N2C(C(=O)[O-])=C(C[n+]3ccc(C(N)=O)cc3)[C@H](C)[C@H]12 : rule met
C[C@@H]([O-])[C@H]1C(=O)N2C(C(=O)[O-])=C(/C=C/C[N+]34CCC(CC3)CC4)[C@H](C)[C@H]12.[Na+] : rule not met
C[C@@H](O)[C@H]1C(=O)N2C(C(=O)[O-])=C(/C=C/c3cc[n+](C)cc3)[C@H](C)[C@H]12 : rule not met
C[C@@H](O)[C@H]1C(=O)N2C(C(=O)[O-])=C(C[n+]3cccc(C(N)=O)c3)[C@H](C)[C@H]12 : rule met

Asked: Report whether reported MIC is lower than 10 µg/mL (strictly) for C[C@@H]([O-])[C@H]1C(=O)N2C(C(=O)[O-])=C(/C=C/Cn3cc[n+]4ccccc34)[C@H](C)[C@H]12.[Na+]
Given back: rule not met

Asked: In plain terms, does C[C@@H]([O-])[C@H]1C(=O)N2C(C(=O)[O-])=C(/C=C/CSc3cc[n+](C)cc3)[C@H](C)[C@H]12.[Na+] come in under 10 µg/mL for MIC?
Given back: rule not met
